Each record here notes measured IC50.
assay: Cytotoxicity against human MDA-MB-435 cells expressing B-RAF V600E mutant assessed as reduction in cell viability after 96 hrs by CellTiter-Glo luminescence assay or methylene blue assay; assay type: functional, cell-based; conditions: MDA-MB-435, 96 h
value.kind: IC50 (nM)

1) CCNc1cc(O)c2c(c1)/C=C/C[C@H](O)[C@H](O)C(=O)/C=C\[C@@H](C)[C@H](C)OC2=O: 71
2) CNc1cc(O)c2c(c1)/C=C/C[C@H](O)[C@H](O)C(=O)/C=C\[C@@H](C)[C@H](C)OC2=O: 50

###

target: Dual specificity mitogen-activated protein kinase kinase 1 (Homo sapiens, UniProt Q02750); test: Inhibition of MEK1 (unknown origin) using ERK2 as substrate after 40 mins by ELISA
Sequence (Q02750 whole entry): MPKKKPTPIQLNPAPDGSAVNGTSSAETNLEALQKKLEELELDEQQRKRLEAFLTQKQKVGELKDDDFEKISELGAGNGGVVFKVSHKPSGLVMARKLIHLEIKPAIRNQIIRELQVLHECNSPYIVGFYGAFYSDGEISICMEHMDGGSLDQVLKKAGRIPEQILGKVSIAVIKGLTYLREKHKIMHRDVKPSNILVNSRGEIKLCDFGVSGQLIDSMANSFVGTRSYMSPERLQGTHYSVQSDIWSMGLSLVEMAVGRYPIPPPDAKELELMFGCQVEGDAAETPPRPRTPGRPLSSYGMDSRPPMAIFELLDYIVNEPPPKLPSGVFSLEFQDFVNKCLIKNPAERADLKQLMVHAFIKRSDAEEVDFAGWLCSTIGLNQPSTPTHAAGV
Each record here notes measured IC50.
value.kind: IC50 (µM)

1) C[C@@H]1/C=C\C(=O)[C@@H](O)[C@@H](O)C/C=C/c2cc(NC3CC3)cc(O)c2C(=O)O[C@H]1C: 0.657
2) C[C@@H]1/C=C\C(=O)[C@@H](O)[C@@H](O)C/C=C/c2cc(N3CCOC3=O)cc(O)c2C(=O)O[C@H]1C: 0.187
3) COCCNc1cc(O)c2c(c1)/C=C/C[C@H](O)[C@H](O)C(=O)/C=C\[C@@H](C)[C@H](C)OC2=O: 0.172
4) C[C@@H]1/C=C\C(=O)[C@@H](O)[C@@H](O)C/C=C/c2cc(NCCNCC(O)CO)cc(O)c2C(=O)O[C@H]1C (some centres not stated): 0.658
